Target: UniProt Q60492
observable: pIC50
Give bare numbers, as −log10 of the molar value.

>  <compound>
Fc1ccc2[nH]cc(C3=CCC(N4CCN(Cc5ccccc5)CC4)CC3)c2c1 (centres unmarked)

>  <pIC50>
8.07

$$$$
>  <compound>
Fc1ccc(C2=CCC(N3CCN(Cc4ccccc4)CC3)CC2)cc1 (centres unmarked)

>  <pIC50>
8.72

$$$$
>  <compound>
COc1ccc(C2=CCC(N3CCN(Cc4ccccc4)CC3)CC2)cc1 (centres unmarked)

>  <pIC50>
9.05

$$$$
>  <compound>
Clc1ccc2[nH]cc(C3=CCC(N4CCN(Cc5ccccc5)CC4)CC3)c2c1 (centres unmarked)

>  <pIC50>
7.50

$$$$
>  <compound>
C1=C(c2ccc3c(c2)OCO3)CCC(N2CCN(Cc3ccccc3)CC2)C1 (centres unmarked)

>  <pIC50>
8.72

$$$$

Go through the items and report each one's pIC50.
1. COc1cccc(CN2CCN(C3CC=C(c4ccc(F)cc4)CC3)CC2)c1 (centres unmarked)
2. COc1cccc(CN2CCN([C@H]3CC[C@H](c4ccc(F)cc4)CC3)CC2)c1

OUT:
1. 8.28
2. 8.49

----------
System: brain ischemia
Assay: Anoxic Nitrogen Test in Rats
Assay type: in vivo, male Sprague-Dawley rats
Settings: Rattus norvegicus, sc; 10 mg/kg, subcutaneously, 2 hr survival; read-out: Nitrogen Anoxia % Survival
observable: responders at 10 mg/kg (%)
Give bare numbers, in %.

Examples from the recorded data:
>  <compound>
Fc1ccc(F)c(CN2CCN(C3CC=C(c4ccc5c(c4)OCO5)CC3)CC2)c1 (centres unmarked) [Example 58]

>  <responders at 10 mg/kg / %>
62

$$$$
>  <compound>
COc1cccc(CN2CCN(C3CC=C(c4ccc(F)cc4)CC3)CC2)c1 (centres unmarked) [Example 60]

>  <responders at 10 mg/kg / %>
50

$$$$
>  <compound>
Clc1ccccc1CN1CCN(C2CC=C(c3ccc4c(c3)OCO4)CC2)CC1 (centres unmarked) [Example 57]

>  <responders at 10 mg/kg / %>
25

$$$$
>  <compound>
COc1cccc(CN2CCN([C@H]3CC[C@H](c4ccc(F)cc4)CC3)CC2)c1 [Example 65]

>  <responders at 10 mg/kg / %>
62

$$$$

IN: # lookup: responders at 10 mg/kg of Fc1ccc(F)c(CC2CCN(C3CC=C(c4ccc5c(c4)OCO5)CC3)CC2)c1 (centres unmarked) [Example 54]
OUT: 38

----------
Target: Dopamine D2 (Rattus norvegicus)
Construct: The corpus striatum was crudely dissected and frozen on dry ice
Sequence (P61169 whole entry): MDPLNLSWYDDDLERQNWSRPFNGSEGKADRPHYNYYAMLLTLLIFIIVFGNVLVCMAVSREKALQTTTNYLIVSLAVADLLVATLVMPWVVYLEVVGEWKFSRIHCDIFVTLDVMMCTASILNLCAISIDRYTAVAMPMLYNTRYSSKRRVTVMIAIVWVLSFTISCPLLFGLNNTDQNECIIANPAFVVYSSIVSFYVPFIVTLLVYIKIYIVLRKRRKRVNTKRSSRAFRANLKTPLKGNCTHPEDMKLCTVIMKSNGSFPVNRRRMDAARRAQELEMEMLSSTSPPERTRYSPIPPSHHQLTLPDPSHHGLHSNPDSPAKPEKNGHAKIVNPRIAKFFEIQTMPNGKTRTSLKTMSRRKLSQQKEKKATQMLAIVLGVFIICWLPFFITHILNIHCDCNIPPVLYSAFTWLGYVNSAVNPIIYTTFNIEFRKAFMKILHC
Experiment: Dopamine D2 Binding Assay ([3H]Spiperone, corpus striatum membranes)
Settings: [3H]Spiperone 0.1 nM, 37° C., 15 min
Procedure: Activity at D2 sites is measured using the screening process set out in Example 67. Dopamine D2 Binding Assay Dopamine D2 affinity was determined according to the procedures of Burt, Creese and Snyder [Molecular Pharmacology 12,800 (1976); Science 196, 326 (1977); Science 192, 481 (1976)]. Briefly, male Sprague-Dawley rats (Charles River) were decapitated, brains rapidly removed and chilled in ice-cold 50 mM Hepes/KOH buffer (pH 7.4, 20° C.). […]
observable: IC50

Examples from the recorded data:
>  <compound>
Fc1ccc(F)c(CN2CCN(C3CC=C(c4ccc5c(c4)OCO5)CC3)CC2)c1 (stereo not drawn)

>  <IC50>
1 to 10 µM

$$$$
>  <compound>
Ic1ccc(I)c(CN2CCN(C3CC=C(c4ccc5c(c4)OCO5)CC3)CC2)c1 (stereo not drawn)

>  <IC50>
> 100 µM

$$$$
>  <compound>
Fc1ccc(C2=CCC(N3CCN(Cc4ccncc4)CC3)CC2)cc1 (stereo not drawn)

>  <IC50>
50 to 100 µM

$$$$
>  <compound>
Fc1ccc2[nH]cc(C3=CCC(N4CCN(Cc5ccccc5)CC4)CC3)c2c1 (stereo not drawn)

>  <IC50>
1 to 10 µM

$$$$
>  <compound>
Fc1ccc([C@H]2CC[C@H](N3CCN(Cc4ccccc4)CC3)CC2)cc1

>  <IC50>
1 to 10 µM

$$$$

Go through the items and report each one's IC50.
1. Fc1ccc2[nH]cc(C3=CCC(N4CCC(Cc5ccccc5)CC4)CC3)c2c1 (stereo not drawn)
2. Fc1ccc(C2=CCC(N3CCN(Cc4ccccc4)CC3)CC2)c2ccccc12 (stereo not drawn)
3. COc1cccc(CN2CCN(C3CC=C(c4ccc5c(c4)OCO5)CC3)CC2)c1 (stereo not drawn)
4. COc1ccc2[nH]cc(C3=CCC(N4CCN(Cc5ccccc5)CC4)CC3)c2c1 (stereo not drawn)

OUT:
1. 1 to 10 µM
2. 1 to 10 µM
3. 1 to 10 µM
4. 1 to 10 µM

----------
For sigma receptor (Cavia porcellus), measured pIC50 is reported for the entries below.
One number for each entry, as −log10 of the molar value.

Examples from the recorded data:
>  <compound>
Fc1ccc(CN2CCN(C3CC=C(c4ccc(C(F)(F)F)cc4)CC3)CC2)cc1 (stereo not shown)

>  <observable>
pIC50

>  <recorded_value>
8.16

$$$$
>  <compound>
Fc1ccc(CN2CCN(C3CC=C(c4ccc(F)cc4)CC3)CC2)cc1 (stereo not shown)

>  <observable>
pIC50

>  <recorded_value>
9.22

$$$$

Go through the items and report each one's pIC50.
1. Fc1ccc([C@H]2CC[C@H](N3CCN(Cc4ccccc4)CC3)CC2)c2ccccc12 [Example 62-trans]
2. Fc1ccc([C@H]2CC[C@@H](N3CCN(Cc4ccccc4)CC3)CC2)c2ccccc12 [Example 62-cis]

OUT:
1. 8.48
2. 8.16

----------
Biological target: Dopamine D2 (Rattus norvegicus)
Construct: The corpus striatum was crudely dissected and frozen on dry ice
Test: Dopamine D2 Binding Assay ([3H]Spiperone, corpus striatum membranes)
Details: [3H]Spiperone 0.1 nM, 37° C., 15 min
Method: Activity at D2 sites is measured using the screening process set out in Example 67. Dopamine D2 Binding Assay Dopamine D2 affinity was determined according to the procedures of Burt, Creese and Snyder [Molecular Pharmacology 12,800 (1976); Science 196, 326 (1977); Science 192, 481 (1976)]. Briefly, male Sprague-Dawley rats (Charles River) were decapitated, brains rapidly removed and chilled in ice-cold 50 mM Hepes/KOH buffer (pH 7.4, 20° C.). […]
observable: IC50

>  <molecule>
Fc1ccc([C@H]2CC[C@@H](N3CCN(Cc4ccccc4)CC3)CC2)c2ccccc12 [Example 62-cis]

>  <observable>
IC50

>  <recorded_value>
> 100 µM

$$$$

Go through the items and report each one's IC50.
1. COc1cccc(CC2CCN(C3CC=C(c4ccc5c(c4)OCO5)CC3)CC2)c1 (centres unmarked)
2. FC(F)(F)c1ccc(C2=CCC(N3CCN(Cc4ccccc4)CC3)CC2)cc1 (centres unmarked)
3. Fc1ccc(C2=CCC(N3CCN(Cc4ccc5ccccc5n4)CC3)CC2)cc1 (centres unmarked)
4. COc1cccc(CN2CCN([C@H]3CC[C@H](c4ccc(F)cc4)CC3)CC2)c1

OUT:
1. 1 to 10 µM
2. 10 to 50 µM
3. 1 to 10 µM
4. 1 to 10 µM

----------
Molecular target: Dopamine D2 (Rattus norvegicus)
Construct: The corpus striatum was crudely dissected and frozen on dry ice
Assay: Dopamine D2 Binding Assay ([3H]Spiperone, corpus striatum membranes)
Settings: [3H]Spiperone 0.1 nM, 37° C., 15 min
Field: IC50. Provide a value for each of the compounds that follow.

Examples from the recorded data:
>  <compound>
C1=C(c2nc3ccccc3s2)CCC(N2CCN(Cc3ccccc3)CC2)C1 (centres unmarked) [Example 38]

>  <IC50>
10 to 50 µM

$$$$
>  <compound>
Fc1ccc([C@H]2CC[C@H](N3CCN(Cc4ccccc4)CC3)CC2)c2ccccc12 [Example 62-trans]

>  <IC50>
> 100 µM

$$$$
>  <compound>
Fc1ccc(C2=CCC(N3CCN(Cc4ccccc4)CC3)CC2)cc1 (centres unmarked) [Example 35]

>  <IC50>
50 to 100 µM

$$$$

Go through the items and report each one's IC50.
1. Fc1ccccc1CC1CCN(C2CC=C(c3ccc4c(c3)OCO4)CC2)CC1 (centres unmarked) [Example 53]
2. C1=C(c2ccc3c(c2)OCO3)CCC(N2CCN(Cc3ccccc3)CC2)C1 (centres unmarked) [Example 37]

OUT:
1. 1 to 10 µM
2. 10 to 50 µM

----------
For sigma receptor (Cavia porcellus, UniProt Q60492), measured IC50 is reported for the entries below.
Answers are plain numbers, in nM.

>  <molecule>
Fc1ccc(C2=CCC(N3CCN(Cc4ccncc4)CC3)CC2)cc1 (stereo not shown)

>  <IC50 / nM>
0.5

$$$$
>  <molecule>
Fc1ccc2[nH]cc(C3=CCC(N4CCC(Cc5ccccc5)CC4)CC3)c2c1 (stereo not shown)

>  <IC50 / nM>
11.1

$$$$
>  <molecule>
COc1cccc(CC2CCN(C3CC=C(c4ccc5c(c4)OCO5)CC3)CC2)c1 (stereo not shown)

>  <IC50 / nM>
7.4

$$$$

Go through the items and report each one's IC50.
1. FC(F)(F)c1ccc(C2=CCC(N3CCN(Cc4ccccc4)CC3)CC2)cc1 (stereo not shown)
2. Fc1ccc([C@H]2CC[C@H](N3CCN(Cc4ccccc4)CC3)CC2)cc1
3. C1=C(Cc2ccccc2)CCC(N2CCN(Cc3ccccc3)CC2)C1 (stereo not shown)
4. Fc1ccc(F)c(CC2CCN(C3CC=C(c4ccc5c(c4)OCO5)CC3)CC2)c1 (stereo not shown)
5. C1=C(c2nc3ccccc3s2)CCC(N2CCN(Cc3ccccc3)CC2)C1 (stereo not shown)

OUT:
4.5
0.7
2.1
3.6
3.9

Go through the items and report each one's IC50.
1. Fc1ccc(C2=CCC(N3CCC(Cc4ccccc4)CC3)CC2)cc1 (stereo not shown)
2. COc1ccc2[nH]cc(C3=CCC(N4CCN(Cc5ccccc5)CC4)CC3)c2c1 (stereo not shown)

OUT:
1: 4; 2: 6.2
